# Assay Remarks: in vitro
# Test Context: mouse, liver microsomes
# Description: Half life in mouse liver microsomes
Readout Kind: half-life

>  <Structure Smiles String>
CN(C)CCN(C)C(=O)c1ccc(NC(=O)Nc2ccc(-c3nc(N4CCOCC4)c4ccn(CC(F)(F)F)c4n3)cc2)cc1

>  <half-life>
> 30 min

$$$$

Note: attention shifts to another entry.
Look up half-life for this molecule: CN1CCN(C(=O)c2ccc(NC(=O)Nc3ccc(-c4nc(N5CCOCC5)c5ccn(CC(F)(F)F)c5n4)cc3)cc2)CC1
> 30 min

###

# Assay Remarks: Solubility at pH 7.4
# Type: physicochemical
# Test Context: buffer
Can you tell me solubility for the items I'm about to list?
Answers are plain numbers, in µg/mL.

Some compounds with recorded solubility:
>  <Structure Smiles String>
O=CCn1ccc2c(N3CCOCC3)nc(-c3ccc(NC(=O)Nc4ccncc4)cc3)nc21

>  <solubility [µg/mL]>
2

$$$$
>  <Structure Smiles String>
CN(C)C1CCN(C(=O)c2ccc(NC(=O)Nc3ccc(-c4nc(N5CCOCC5)c5ccn(CC(F)(F)F)c5n4)cc3)cc2)CC1

>  <solubility [µg/mL]>
1

$$$$
>  <Structure Smiles String>
CN(C)CCn1ccc2c(N3CCOCC3)nc(-c3ccc(NC(=O)Nc4ccncc4)cc3)nc21

>  <solubility [µg/mL]>
52

$$$$
>  <Structure Smiles String>
Oc1cccc(-c2nc(N3CCOCC3)c3cc[nH]c3n2)c1

>  <solubility [µg/mL]>
2

$$$$
>  <Structure Smiles String>
OCc1cccc(-c2nc(N3CCOCC3)c3cc[nH]c3n2)c1

>  <solubility [µg/mL]>
38

$$$$

Note: attention shifts to another entry.
Look up solubility for this compound: CN(C)CCNCCn1ccc2c(N3CCOCC3)nc(-c3ccc(NC(=O)Nc4ccncc4)cc3)nc21
58
